- assay procedure: tissue concentrations after intraperitoneal injection into a live rat
- Assay type: in vivo
- experimental parameters: lung, ip, 6 mg i.p., 60 min, read-out: Concentration of compound 188 in tissue samples (μM) lung
measurement kind: concentration at 60 min (µM)
Give a bare numeral; the unit µM is implied.

Data request, read-out concentration at 60 min, for O=C1c2ccsc2N=C2N(c3ccc(N4CCOCC4)cc3)CCC12O (stereo not shown)
4

* * *

- measured target: recombinant Dictyostelium miozin (Dictyostelium) (Dictyostelium discoideum, UniProt P08799)
- Sequence (P08799 whole entry): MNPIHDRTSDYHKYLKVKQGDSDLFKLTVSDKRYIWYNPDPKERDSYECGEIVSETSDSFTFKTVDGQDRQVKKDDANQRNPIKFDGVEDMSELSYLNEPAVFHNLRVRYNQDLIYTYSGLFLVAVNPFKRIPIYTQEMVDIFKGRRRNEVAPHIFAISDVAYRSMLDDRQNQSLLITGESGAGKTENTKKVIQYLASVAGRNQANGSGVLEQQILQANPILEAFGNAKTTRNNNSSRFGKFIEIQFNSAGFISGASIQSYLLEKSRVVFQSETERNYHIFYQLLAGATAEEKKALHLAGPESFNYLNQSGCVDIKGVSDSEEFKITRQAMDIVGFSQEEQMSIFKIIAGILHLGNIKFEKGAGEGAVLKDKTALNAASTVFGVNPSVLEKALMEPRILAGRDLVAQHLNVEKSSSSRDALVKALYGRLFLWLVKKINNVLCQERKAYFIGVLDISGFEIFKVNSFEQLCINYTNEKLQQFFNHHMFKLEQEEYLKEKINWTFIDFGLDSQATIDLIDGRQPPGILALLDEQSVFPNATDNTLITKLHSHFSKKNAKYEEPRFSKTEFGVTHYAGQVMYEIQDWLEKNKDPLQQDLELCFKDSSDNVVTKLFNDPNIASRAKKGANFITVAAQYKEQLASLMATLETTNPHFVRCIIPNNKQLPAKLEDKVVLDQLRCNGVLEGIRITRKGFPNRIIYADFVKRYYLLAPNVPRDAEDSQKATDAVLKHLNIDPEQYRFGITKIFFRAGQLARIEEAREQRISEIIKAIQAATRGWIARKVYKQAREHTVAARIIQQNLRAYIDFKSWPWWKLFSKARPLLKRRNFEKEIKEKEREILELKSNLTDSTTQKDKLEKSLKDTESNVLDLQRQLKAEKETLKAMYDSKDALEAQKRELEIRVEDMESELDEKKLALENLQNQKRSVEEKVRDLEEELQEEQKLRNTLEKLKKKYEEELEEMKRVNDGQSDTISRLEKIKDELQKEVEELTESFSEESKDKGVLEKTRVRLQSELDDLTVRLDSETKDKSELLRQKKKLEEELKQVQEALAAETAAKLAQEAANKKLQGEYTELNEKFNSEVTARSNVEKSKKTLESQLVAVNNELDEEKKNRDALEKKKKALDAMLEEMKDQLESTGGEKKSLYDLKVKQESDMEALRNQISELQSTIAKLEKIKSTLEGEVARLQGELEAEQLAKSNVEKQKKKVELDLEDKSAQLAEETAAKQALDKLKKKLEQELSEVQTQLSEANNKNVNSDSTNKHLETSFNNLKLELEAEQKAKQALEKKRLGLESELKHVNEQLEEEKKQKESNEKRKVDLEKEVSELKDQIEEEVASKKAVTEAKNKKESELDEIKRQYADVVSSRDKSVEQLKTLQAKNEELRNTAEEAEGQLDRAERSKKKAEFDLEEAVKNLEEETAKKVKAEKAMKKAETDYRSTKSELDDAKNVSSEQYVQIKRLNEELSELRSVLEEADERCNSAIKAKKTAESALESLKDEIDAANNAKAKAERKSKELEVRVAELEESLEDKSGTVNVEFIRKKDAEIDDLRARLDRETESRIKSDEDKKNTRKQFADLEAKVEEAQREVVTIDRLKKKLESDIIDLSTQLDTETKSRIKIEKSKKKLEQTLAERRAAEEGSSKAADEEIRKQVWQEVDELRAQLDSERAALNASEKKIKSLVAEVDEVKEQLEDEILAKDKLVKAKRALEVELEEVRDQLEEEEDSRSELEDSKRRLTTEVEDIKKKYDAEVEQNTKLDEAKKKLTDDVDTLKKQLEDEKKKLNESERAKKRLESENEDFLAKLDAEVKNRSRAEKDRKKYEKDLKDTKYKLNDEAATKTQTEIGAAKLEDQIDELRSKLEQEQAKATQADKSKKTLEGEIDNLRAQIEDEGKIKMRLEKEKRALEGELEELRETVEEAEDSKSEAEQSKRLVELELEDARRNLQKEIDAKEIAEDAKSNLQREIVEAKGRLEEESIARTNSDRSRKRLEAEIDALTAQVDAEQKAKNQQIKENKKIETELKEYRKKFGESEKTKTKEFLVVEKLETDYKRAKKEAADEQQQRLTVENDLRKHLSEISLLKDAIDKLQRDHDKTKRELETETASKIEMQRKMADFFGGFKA
- assay procedure: actomyosin steady state ATPase measurement, Dictyostelium myosin
- Format: biochemical
- experimental parameters: concentration required for semi-maximal inhibition of ATPase; read-out: IC50 (μM) Dicty
Field: label. Allowed values: condition met (IC50 < 5 µM) or condition not met (IC50 >= 5 µM).

>>> label_value("CC(=O)c1ccc(N2CCC3(O)C(=O)c4cc(C)sc4N=C23)cc1 (stereo not drawn)")
"condition met"
>>> label_value("Cc1cc2c(s1)N=C1N(c3ccc(C#N)cc3)CCC1(O)C2=O (stereo not drawn)")
"condition met"
>>> label_value("N#CCc1ccc(N2CC[C@@]3(O)C(=O)c4ccsc4N=C23)cc1")
"condition not met"
>>> label_value("Cc1cc2c(s1)N=C1NCCC1(O)C2=O (stereo not drawn)")
"condition not met"
>>> label_value("O=C1c2ccncc2N=C2N(c3ccc(N4CCOCC4)cc3)CCC12O (stereo not drawn)")
"condition not met"

Determine if Cc1ccc(N2CCC3(O)C(=O)c4cc(C)sc4N=C23)cc1 (stereo not drawn) shows IC50 strictly lower than 5 µM.
condition met

Would you kindly repeat that for O=C1c2ccsc2N=C2N(c3cccs3)CC[C@@]12O ?
condition not met

Quick one: COc1ccc(N2CCC3(O)C(=O)c4cc(C)sc4N=C23)cc1 (stereo not drawn)
condition met

* * *

- assay procedure: tissue concentrations after intraperitoneal injection into a live rat
- Assay type: in vivo
- experimental parameters: myocardium, ip, 6 mg i.p., 60 min, read-out: Concentration of compound 188 in tissue samples (μM) myocardium
measurement kind: concentration at 60 min (µM)
Give the value, in units of µM, as a plain number.

Reported concentration at 60 min for O=C1c2ccsc2N=C2N(c3ccc(N4CCOCC4)cc3)CCC12O (stereo not shown) : what is it?
9

* * *

- measured target: isolated porcine cardiac ventricular myocardium (cardiac) (Sus scrofa)
- Construct: isolated porcine cardiac ventricular myocardium (cardiac); from tissue; host or cells: porcine cardiac ventricle
- Sequence (P79293 whole entry): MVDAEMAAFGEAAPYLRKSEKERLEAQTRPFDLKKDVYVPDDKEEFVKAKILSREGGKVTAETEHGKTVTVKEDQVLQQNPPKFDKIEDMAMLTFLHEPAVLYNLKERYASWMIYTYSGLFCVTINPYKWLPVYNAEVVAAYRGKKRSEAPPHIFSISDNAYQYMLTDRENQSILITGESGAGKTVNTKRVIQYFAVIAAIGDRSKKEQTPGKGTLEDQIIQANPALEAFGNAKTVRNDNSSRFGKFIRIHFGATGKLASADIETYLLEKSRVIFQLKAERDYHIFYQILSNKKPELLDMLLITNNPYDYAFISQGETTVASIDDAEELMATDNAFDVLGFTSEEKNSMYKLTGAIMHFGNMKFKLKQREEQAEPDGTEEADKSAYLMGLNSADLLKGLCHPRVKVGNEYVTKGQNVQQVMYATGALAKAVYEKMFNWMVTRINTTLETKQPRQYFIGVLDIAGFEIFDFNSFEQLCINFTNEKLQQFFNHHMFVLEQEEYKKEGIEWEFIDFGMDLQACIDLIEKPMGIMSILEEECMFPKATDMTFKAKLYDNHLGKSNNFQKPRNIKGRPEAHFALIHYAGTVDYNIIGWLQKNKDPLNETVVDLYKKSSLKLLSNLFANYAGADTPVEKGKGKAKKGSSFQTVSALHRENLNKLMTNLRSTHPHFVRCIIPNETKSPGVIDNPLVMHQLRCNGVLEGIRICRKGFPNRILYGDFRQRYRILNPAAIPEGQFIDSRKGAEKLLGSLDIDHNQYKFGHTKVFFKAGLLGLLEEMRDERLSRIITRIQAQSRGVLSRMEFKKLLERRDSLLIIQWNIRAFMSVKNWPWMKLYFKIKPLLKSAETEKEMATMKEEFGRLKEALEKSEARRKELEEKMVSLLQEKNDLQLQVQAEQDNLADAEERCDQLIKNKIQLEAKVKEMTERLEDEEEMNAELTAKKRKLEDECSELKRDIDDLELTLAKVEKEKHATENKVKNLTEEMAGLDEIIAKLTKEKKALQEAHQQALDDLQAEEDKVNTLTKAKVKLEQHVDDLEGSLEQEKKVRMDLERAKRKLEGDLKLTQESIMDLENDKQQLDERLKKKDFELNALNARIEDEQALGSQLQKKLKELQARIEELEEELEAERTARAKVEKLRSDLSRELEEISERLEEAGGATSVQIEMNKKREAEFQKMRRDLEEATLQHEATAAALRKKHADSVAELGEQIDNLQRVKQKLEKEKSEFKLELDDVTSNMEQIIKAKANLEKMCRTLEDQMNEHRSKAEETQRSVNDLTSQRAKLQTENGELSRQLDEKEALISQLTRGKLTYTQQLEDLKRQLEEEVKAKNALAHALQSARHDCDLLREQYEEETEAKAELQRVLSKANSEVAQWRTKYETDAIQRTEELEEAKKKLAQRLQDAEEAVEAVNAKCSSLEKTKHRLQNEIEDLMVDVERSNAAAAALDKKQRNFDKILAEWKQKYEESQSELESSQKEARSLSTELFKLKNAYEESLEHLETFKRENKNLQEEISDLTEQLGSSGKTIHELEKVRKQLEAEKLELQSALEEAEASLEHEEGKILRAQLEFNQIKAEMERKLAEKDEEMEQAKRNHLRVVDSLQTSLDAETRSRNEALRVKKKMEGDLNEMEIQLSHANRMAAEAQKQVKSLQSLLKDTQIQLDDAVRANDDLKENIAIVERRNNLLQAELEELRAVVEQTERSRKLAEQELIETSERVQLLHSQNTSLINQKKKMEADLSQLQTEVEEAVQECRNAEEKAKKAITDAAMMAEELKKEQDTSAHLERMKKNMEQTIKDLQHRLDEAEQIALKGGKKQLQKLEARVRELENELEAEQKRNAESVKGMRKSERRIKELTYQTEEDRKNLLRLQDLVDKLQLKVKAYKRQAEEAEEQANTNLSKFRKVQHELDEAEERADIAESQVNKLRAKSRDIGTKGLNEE
- assay procedure: actomyosin steady state ATPase measurement, cardiac myosin
- Format: biochemical
- experimental parameters: maximum value of inhibition of ATPase activity
Each entry falls in a class defined on % inhibition. complete cardiac; the bands are LOW: < 80%; MEDIUM: ≥ 80% and < 90%; HIGH: ≥ 90%

>>> label_value("COc1ccc(N2CC[C@@]3(O)C(=O)c4ccsc4N=C23)cn1")
"MEDIUM"
>>> label_value("Cc1cc2c(s1)N=C1N(c3ccc(CC#N)cc3)CCC1(O)C2=O (stereo not drawn)")
"MEDIUM"

Where would O=C1c2ccncc2N=C2N(c3ccccc3)CCC12O (stereo not drawn) land among the classes by reported % inhibition. complete cardiac?
HIGH

Also need N#Cc1ccc(N2CC[C@@]3(O)C(=O)c4ccsc4N=C23)cc1 , thanks.
MEDIUM

Let us now turn to O=C1c2sccc2N=C2N(c3ccccc3)CCC12O (stereo not drawn)
MEDIUM

Do the same for COc1ccc(N2CC[C@@]3(O)C(=O)c4ccsc4N=C23)cc1 please
MEDIUM

Subsequent entry: Cc1cc2c(s1)N=C1N(c3ccc(OC(F)(F)F)cc3)CCC1(O)C2=O (stereo not drawn)
HIGH

Likewise for CC(=O)c1ccc(N2CC[C@@]3(O)C(=O)c4ccsc4N=C23)cc1 ?
MEDIUM

Then this compound: COc1ccc(N2CCC3(O)C(=O)c4cc(C)sc4N=C23)cn1 (stereo not drawn)
HIGH

Please give the result for O=C1c2ccsc2N=C2NCC[C@@]12O too.
LOW

Now the compound N#CCc1ccc(N2CC[C@@]3(O)C(=O)c4ccsc4N=C23)cc1
HIGH

And what about the compound O=C1c2ccsc2N=C2N(c3ccc(OC(F)(F)F)cc3)CC[C@@]12O ?
HIGH

Query Cc1cc2c(s1)N=C1N(c3ccc(C#N)cc3)CCC1(O)C2=O (stereo not drawn) next
HIGH

And CC(=O)c1ccc(N2CCC3(O)C(=O)c4cc(C)sc4N=C23)cc1 (stereo not drawn) ?
HIGH

Next entry: O=C1c2ccsc2N=C2N(c3ccc(N4CCOCC4)cc3)CCC12O (stereo not drawn)
LOW
